Assay: inhibition of PEG-3 promoter activity – cell-based, HeLa, luciferase luminescence, primary screen (AID 588405)
Settings: HeLa PEG-Prom luciferase reporter, overnight, at 20 µM
Out of some 360,000 compounds screened, about 6,200 (1.7%) were called active.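 The calls were made as follows: active = inhibition of at least 50% at 20 µM; inactive = the rest.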 The list comes from a sample in which actives are over-represented; it also holds close analogues and randomly drawn compounds.
Respond only with the outcome that fits, drawn from true (1) (active), false (0) (inactive)

Recorded test call requested for CC(=O)NC(c1ccccc1)c1nc(-c2cccc(C(C)C)c2)cs1 (stereo unspecified) false (0)

Recorded test call requested for `Cc1ccc(S(=O)(=O)N2CC[C@H]3[C@@H](C2)C(=O)C[C@@H](c2ccccc2)N3S(=O)(=O)c2ccc(C)cc2)cc1` false (0)

Recorded test call requested for `S=C(NN=Cc1ccccn1)Nc1ccccn1` false (0)

Recorded test call requested for O=C(NCc1cccnc1)c1cc(C2CCCCN2C(=O)CCc2ccccc2)on1 (stereo unspecified) false (0)

Recorded test call requested for `CCCCc1cc2c(s1)CCCC/C2=N/O` false (0)

Recorded test call requested for `O=C1NC[C@@H](c2ccccc2)OC(=O)[C@H](Cc2ccc(F)cc2)CC/C=C/C[C@H]1CC(=O)N(CCO)Cc1ccccc1` true (1)

Recorded test call requested for CCOC(=O)C1CCCN(C(=O)c2cccc3ccccc23)CC1 (stereo unspecified) false (0)

Recorded test call requested for `COc1ccccc1N1CCN(/N=C\C(Br)=C\c2ccccc2)CC1` false (0)

Recorded test call requested for `COc1ccc(-c2nc3ccc(Br)cn3c2Cc2ccc(C)cc2)cc1OC` false (0)

Recorded test call requested for `Cc1ccccc1-c1n[nH]c(=S)n1/N=C/c1ccc(-c2ccccc2Br)o1` false (0)

Recorded test call requested for `O=C(N/N=C/c1ccccn1)C12CC3CC(CC(C3)C1)C2` false (0)

Recorded test call requested for `N#Cc1cccc(CN2CCC(=O)N([C@H](CO)c3ccccc3)CC2)c1` false (0)

Recorded test call requested for `O=C1CCN(Cc2ccccc2)CCN1[C@H](CSc1ccccc1)c1ccccc1` false (0)

Recorded test call requested for `Cc1ccc(-c2nc3ccc(Br)cn3c2Cc2ccccc2C(F)(F)F)cc1` false (0)

Recorded test call requested for `CC(C)Nc1nc(NCCOc2ccccc2Cl)c2sccc2n1` false (0)

Recorded test call requested for `CCOC(=O)c1ccc(NC(=O)c2nc[nH]c2C(=O)NCc2ccccc2)cc1` false (0)

Recorded test call requested for `Cn1c(NCc2cccnc2)nc2cc(-c3ccc(F)cc3)sc2c1=O` false (0)

Recorded test call requested for `COc1cc(NC(=O)c2[nH]cnc2C(N)=O)cc(C(=O)Nc2cccc(C(F)(F)F)c2)c1` true (1)

Recorded test call requested for `Cc1nnc(N/N=C/c2ccccn2)[nH]c1=O` true (1)

Recorded test call requested for `Cc1cc(-c2n[nH]c(=S)n2/N=C/C(Br)=C/c2ccccc2)n[nH]1` true (1)

Recorded test call requested for CCOC(=O)[C@H]1Nc2ccc(Cl)cc2[C@@H]2[C@H]1C1CC(c3ccccc31)N2C(=O)OCc1ccccc1 (stereo partly specified) false (0)

---

Assay: inhibition of PEG-3 promoter activity – cell-based, HeLa, luciferase luminescence, primary screen (AID 588405)
Details: HeLa PEG-Prom luciferase reporter, overnight, at 20 µM
In all, about 360,000 compounds went through this assay and about 6,200 (1.7%) were called active.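 The calls were made as follows: active = inhibition of at least 50% at 20 µM; inactive = the rest.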 This is one part of a sample in which actives are shown more often than they occur.
Respond only with the outcome that fits, drawn from class 1 (active), class 0 (inactive)

Recorded test call requested for `COc1ccc(Cl)cc1N(CC(=O)N/N=C/c1ccc(OCC(N)=O)cc1)S(C)(=O)=O` class 0

Recorded test call requested for CC1CCCN(C(=O)CN2C(=O)c3ccccc3S2(=O)=O)C1 (stereo not given) class 0

Recorded test call requested for CCC(=O)N1CCCC1(C)C(=O)Nc1ccc2c(c1)CCN2C(C)=O (stereo not given) class 0

Recorded test call requested for `O=C(CN1C(=O)c2ccccc2S1(=O)=O)N1CCc2ccccc21` class 1

Recorded test call requested for `CC(=O)Nc1cc(-c2ccccc2N(C)C)cn2c(-c3ccc(F)c(Cl)c3)cnc12` class 0

Hey, just so you know, these numbers are from PubChem BioAssay AID588405.
